Reference source: ChEMBL document CHEMBL1134249

# System: Bacteria
# EXPERIMENTAL PROTOCOL: Minimum inhibitory concentration required against six gram-positive organisms (G+6)
# Format: functional
MIC values by entry
Numbers only here, please. The scale is µM.

Below, 5 molecules whose answers are already recorded.
>  <TEST SMILES>
CCc1nc2ccccc2c(=O)n1NC(=O)Nc1cc(C(F)(F)F)cc(C(F)(F)F)c1

>  <NUMERIC RESULT>
7

$$$$
>  <TEST SMILES>
O=C(Nc1cc(C(F)(F)F)cc(C(F)(F)F)c1)Nn1cnnc1

>  <NUMERIC RESULT>
198

$$$$
>  <TEST SMILES>
O=C(Nc1cc(C(F)(F)F)cc(C(F)(F)F)c1)NN1CCOCC1

>  <NUMERIC RESULT>
68

$$$$
>  <TEST SMILES>
O=C(NNc1nccc(C(F)(F)F)n1)Nc1cc(C(F)(F)F)cc(C(F)(F)F)c1

>  <NUMERIC RESULT>
4

$$$$
>  <TEST SMILES>
CN[C@H](CC(C)C)C(=O)N[C@H]1C(=O)N[C@@H](CC(N)=O)C(=O)N[C@H]2C(=O)N[C@H]3C(=O)N[C@H](C(=O)N[C@H](C(=O)O)c4cc(O)cc(O)c4-c4cc3ccc4O)[C@H](O)c3ccc(c(Cl)c3)Oc3cc2cc(c3O[C@@H]2O[C@H](CO)[C@@H](O)[C@H](O)[C@H]2O[C@H]2C[C@](C)(N)[C@H](O)[C@H](C)O2)Oc2ccc(cc2Cl)[C@H]1O

>  <NUMERIC RESULT>
0.3

$$$$

Please give the documented MIC of CC(C)c1nc2ccccc2c(=O)n1NC(=O)Nc1ccc(C(F)(F)F)cc1
10

* * *

# Tested on: Bacteria
# EXPERIMENTAL PROTOCOL: Minimum inhibitory concentration required against six gram-positive organisms (G+6)
# Type: functional
Entries and their MIC values follow.
Give your result as the value with the unit written after it.

>  <TEST SMILES>
O=C(NNC(=O)Nc1cc(C(F)(F)F)cc(C(F)(F)F)c1)Nc1ccc(C(F)(F)F)cc1

>  <TARGET OR SYSTEM>
Bacteria

>  <MIC>
2 µM

$$$$
>  <TEST SMILES>
O=C(NNC(=O)Nc1cc(C(F)(F)F)cc(C(F)(F)F)c1)Nc1cc(C(F)(F)F)cc(C(F)(F)F)c1

>  <TARGET OR SYSTEM>
Bacteria

>  <MIC>
3 µM

$$$$

// Input: CC(C)c1nc2ccccc2c(=O)n1NC(=O)Nc1cc(C(F)(F)F)cc(C(F)(F)F)c1 . Output its MIC only.
1.5 µM
